Target: T1, His-tagged human CTLA-4 (CT4-H5229; Acro Biosystems) (human, UniProt P16410 36-161)
T1 construct: bought soluble protein; also called soluble human CTLA-4; recombinant human CTLA-4; not shown: His tag
T1 sequence (P16410 36-161 limits assumed): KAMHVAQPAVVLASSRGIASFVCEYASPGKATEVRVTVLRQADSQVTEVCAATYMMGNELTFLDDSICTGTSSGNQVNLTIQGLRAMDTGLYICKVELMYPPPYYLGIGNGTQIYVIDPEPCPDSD
Experiment: SPR (Carterra)
measured.parameter: kon (M⁻¹ s⁻¹)
Numbers only, in M⁻¹ s⁻¹.

Take a look at these entries with their results.
{"binder": "antibody A8 (L8H8) (antibody, V domains shown, also called aCTLA-4.1) VH: QVQLVESGGGVVQPGRSLRLSCAASGFTFSRYGMHWVRQAPGKGLEWVAVIWYDGRNKYYADSVKGRFTISRDNSKNTLYLQMNSLRAEDTALYSCARAGELGPFDYWGQGTLVTVSS VL: EIVLTQSPGTLSLSPGERATLSCRASQSVSYLAWYQQKPGQAPRLLIYGASSRATGIPDRFSGSGSGTDFTLTISRLEPEDFAVYYCQQYGSSPWTFGQGTKVEIK", "unit.string": "M⁻¹ s⁻¹", "readout.number": 85000}
{"binder": "antibody A4 (L4H4) (antibody, V domains shown, also called aCTLA-4.29) VH: QVQLVESGGGVVQPGRSLRISCAASGFTFSSYGIHWVRQAPGKGLQWVAVIWYDGRNKYYADSVKGRFTISRDNSKNTLYLQMNSLRAEDTAVYYCSRSGSFGAFDIWGQGTMVTVSS VL: EIVLTQSPGTLSLSPGDRATLSCRASQSGSSSYLAWYQQKPGQAPRLLIYGASSRATGIPDRFSGSGSGTDFTLTISRLEPEDFAVYYCQQYGTSPFTSGPGTKVDIK", "unit.string": "M⁻¹ s⁻¹", "readout.number": 76000}
{"binder": "antibody A5 (L5H5) (antibody, V domains shown, also called aCTLA-4.28; CTLA4.A5) VH: QVQLVESGGGVVQPGRSLRLSCAASGFTFSSYGMHWVRQAPGKGLEWVAVIWYDGNNKYYADSVKGRFTISRDNSKNTLYLQMYSLRAEDTAVYYCARGGILAAGIFDYWGQGTLVTVSS VL: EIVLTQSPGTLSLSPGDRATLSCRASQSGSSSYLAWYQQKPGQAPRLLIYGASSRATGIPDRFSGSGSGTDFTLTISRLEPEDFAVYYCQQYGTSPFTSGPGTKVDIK", "unit.string": "M⁻¹ s⁻¹", "readout.number": 90000}

Query binder follows.
Value of measured kon for the entry antibody A17 (L17H17) (antibody, V domains shown, also called aCTLA-4.17) VH: EVQLVESGGGLVQPGGSLRLSCAASGFTFSNYAMSWVRQAPGKGLEWVSAISGGGLSTYYADSVKGRFTISRDNSKNTLYLQMNSLRAEDTAVYYCAKDLLWLGFDYWGQGTLVTVSS VL: DIQMTQSPSSLSASVGDRVTITCRASQAIRNDLGWYQQKPGKAPKRLIYAASSLQSGVPPRFSGSGSGTEFTLTISSLQPEDFATYYCLQHNSYPLTFGGGTKVEIK : 66000

meta.source: patent US20230265192A1
